Target: UniProtKB P9WG57
Sequence (P9WG57 whole entry): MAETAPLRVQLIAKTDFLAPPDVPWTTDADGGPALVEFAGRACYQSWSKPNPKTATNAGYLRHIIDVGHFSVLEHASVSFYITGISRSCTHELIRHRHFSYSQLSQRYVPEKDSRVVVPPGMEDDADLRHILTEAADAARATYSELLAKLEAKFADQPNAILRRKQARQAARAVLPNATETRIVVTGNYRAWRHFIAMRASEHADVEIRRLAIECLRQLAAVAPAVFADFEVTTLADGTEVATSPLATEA
assayEndpoint: pIC50
Here pIC50 is given on a logarithmic scale as minus log10 of the concentration in mol/L.

Reference set (2 entries):
{"compound": "CCCCCCCC(=O)NCC#Cc1cn([C@H]2C[C@H](O)[C@@H](COP(=O)(O)O)O2)c(=O)[nH]c1=O", "pIC50": 6.04}
{"compound": "CCCCCCCCCCC#Cc1cn([C@H]2C[C@H](O)[C@@H](COP(=O)(O)O)O2)c(=O)[nH]c1=O", "pIC50": 4.56}

Query block: Reported pIC50, compound `CCCCNC(=O)CCCCC#Cc1cn([C@H]2C[C@H](O)[C@@H](COP(=O)(O)O)O2)c(=O)[nH]c1=O` : ____
Result block: 5.10

Query block: Same question, `CCCCCCCS(=O)(=O)NCC#Cc1cn([C@H]2C[C@H](O)[C@@H](COP(=O)(O)O)O2)c(=O)[nH]c1=O` this time
Result block: 5.16

Query block: Then what about the compound `N#C/C=C/c1cn([C@H]2C[C@H](O)[C@@H](COP(=O)(O)O)O2)c(=O)[nH]c1=O` ?
Result block: 5.13

Query block: Also check `CCCCCC(=O)NCC#Cc1cn([C@H]2C[C@H](O)[C@@H](COP(=O)(O)O)O2)c(=O)[nH]c1=O`
Result block: 5.06

Query block: Consider next the compound `O=c1[nH]c(=O)n([C@H]2C[C@H](O)[C@@H](COP(=O)(O)O)O2)cc1-c1ccc(F)cc1` in the same way.
Result block: 5.00

Query block: Another: `O=C(Cc1ccccc1)NCC#Cc1cn([C@H]2C[C@H](O)[C@@H](COP(=O)(O)O)O2)c(=O)[nH]c1=O`
Result block: 5.14

Query block: Next record, please: `O=c1[nH]c(=O)n([C@H]2C[C@H](O)[C@@H](COP(=O)(O)O)O2)cc1F`
Result block: 6.54

Query block: // repeat for `CCCCCCNC(=O)NCC#Cc1cn([C@H]2C[C@H](O)[C@@H](COP(=O)(O)O)O2)c(=O)[nH]c1=O` and report
Result block: 5.32

Query block: And the next one, `CCCC(=O)NCC#Cc1cn([C@H]2C[C@H](O)[C@@H](COP(=O)(O)O)O2)c(=O)[nH]c1=O` ?
Result block: 4.58
